Provenance of the data: patent US20240352075A1

Biological target: T1, human VPAC1 (human, UniProt P32241 31-457)
T1 sequence (looked up): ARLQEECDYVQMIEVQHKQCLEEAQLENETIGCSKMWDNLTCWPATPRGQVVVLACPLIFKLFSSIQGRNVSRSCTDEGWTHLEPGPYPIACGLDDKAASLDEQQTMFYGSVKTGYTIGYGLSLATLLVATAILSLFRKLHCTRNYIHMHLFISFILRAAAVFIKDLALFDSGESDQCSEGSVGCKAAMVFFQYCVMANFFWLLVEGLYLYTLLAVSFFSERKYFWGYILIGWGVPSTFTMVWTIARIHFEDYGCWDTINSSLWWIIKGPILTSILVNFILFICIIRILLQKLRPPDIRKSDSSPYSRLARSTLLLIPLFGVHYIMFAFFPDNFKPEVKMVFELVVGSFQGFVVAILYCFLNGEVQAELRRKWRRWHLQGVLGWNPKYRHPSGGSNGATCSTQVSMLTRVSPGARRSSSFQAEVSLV
Assay: cell-based or functional assay
Primed or numbered codes have the meaning given here. Where no end group is shown, it is not given here. [ ]: non-standard residue; d: D form. Glc = glucose on Ser (glucosylated Ser); Glc″ = glucose, glycoside on Ser; Lac′ = lactose, glycoside on Ser; Nva = CCC[C@H](N)C(=O)O; Sar = CNCC(=O)O
// returns not satisfied unless cAMP stimulation EC50 is strictly below 30 nM, in which case satisfied

HSDGIFTDSYSRYRKQ[Nva]AVKKYLS(Lac′)-NH2 [CRA-TG-3025]	satisfied
HSDGIFTDSYSRYRKQ[Nva]AVKKYLS-NH2 (not fully specified) [CRA-DV-3022]	satisfied
HSD[Sar]IFTDSYSRYRKQ[Nva]AVKKYLS(Lac′)-NH2 [CRA-TG-3027]	not satisfied
HSDGIFTDSYSRYRKQ[Nva]AVKKYLS(Glc″)-NH2 [CRA-DV-3023]	not satisfied
HSDAIFTDSYSRYRKQ[Nva]AVKKYLS(Lac′)-NH2 [CRA-TG-3026]	not satisfied

q: Strictly below 30 nM: is that where cAMP stimulation EC50 of HSDGIFTDSYSRYRKQ[Nva]AVKKYLS(Glc)S(Glc)-NH2 [CRA-DV-3024] sits?
a: satisfied
